src = paper PMC10700347

Test system: H292 non-small-cell lung cancer cell line
Experiment: cells
Assay type: cell-based
Settings: Homo sapiens, NCI-H292; H292, MTT, 72 h; read-out: IC50 ± S.D. H292
For each record, write down the corresponding IC50.
Numbers only, in nM.

| molecule | readoutType | valueObserved |
| --- | --- | --- |
| C/C=C(/C)C(=O)OC[C@H]1c2c(c(OC(=O)c3cnc4ccccc4c3)c(C)c3c2OCO3)C[C@H]2[C@H]3C4=C(C[C@@H]([C@H](C#N)N12)N3C)C(=O)C(C)=C(OC)C4=O [Compound 3j, 5-O-(3-quinolinecarbonyl) ester] | IC50 | 77.8 |
| C/C=C(/C)C(=O)OC[C@H]1C2=C(C[C@H]3[C@H]4C5=C(C[C@@H]([C@H](C#N)N13)N4C)C(=O)C(C)=C(OC)C5=O)C(=O)C(C)=C(OC)C2=O [Compound 1, Renieramycin M] | IC50 | 34.4 |
| C/C=C(/C)C(=O)OC[C@H]1c2c(c(OC(=O)CC)c(C)c3c2OCO3)C[C@H]2[C@H]3C4=C(C[C@@H]([C@H](C#N)N12)N3C)C(=O)C(C)=C(OC)C4=O [Compound 3b] | IC50 | 33.4 |
| C/C=C(/C)C(=O)OC[C@H]1c2c(c(OC(=O)[C@H](Cc3ccccc3)NC(=O)OC(C)(C)C)c(C)c3c2OCO3)C[C@H]2[C@H]3C4=C(C[C@@H]([C@H](C#N)N12)N3C)C(=O)C(C)=C(OC)C4=O [Compound 3f] | IC50 | 54.1 |

Now consider the entry below.
Ask: Consider the molecule C/C=C(/C)C(=O)OC[C@H]1C2=C(C[C@H]3[C@H]4C5=C(C[C@@H]([C@H](C#N)N13)N4C)C(=O)C(C)=C(OC)C5=O)C(=O)C(C)=C(OC(=O)CC)C2=O [Compound 4a] and give its measured IC50.
Result: 99.9

---

Test system: human keratinocyte (HaCaT) cell line
Assay: MTT cell viability on normal cell line HaCaT
Assay type: cell-based
Details: 24 h, read-out: IC50 ± S.D. HaCaT
readoutType: IC50 (µM)
Give bare numbers, in µM.

Ask: Please tell me: IC50 of N.N.[Cl][Pt][Cl] [Cisplatin, reference compound] , system human keratinocyte (HaCaT) cell line?
Result: 14.3

---

Test system: human keratinocyte (HaCaT) cell line
Assay: MTT cell viability on normal cell line HaCaT
Format: cell-based
Details: Homo sapiens, 24 h, read-out: IC50 ± S.D. HaCaT
Labelling field: enter T if recorded IC50 is less than 0.2 µM. Enter F if it equals or exceeds that cut-off.

Solved entries:
| molecule | label |
| --- | --- |
| C/C=C(/C)C(=O)OC[C@H]1c2c(c(OC(=O)c3ccccn3)c(C)c3c2OCO3)C[C@H]2[C@H]3C4=C(C[C@@H]([C@H](C#N)N12)N3C)C(=O)C(C)=C(OC)C4=O | T |
| C/C=C(/C)C(=O)OC[C@H]1C2=C(C[C@H]3[C@H]4C5=C(C[C@@H]([C@H](C#N)N13)N4C)C(=O)C(C)=C(OC)C5=O)C(=O)C(C)=C(OC(=O)c1cccnc1)C2=O | T |
| C/C=C(/C)C(=O)OC[C@H]1C2=C(C[C@H]3[C@H]4C5=C(C[C@@H]([C@H](C#N)N13)N4C)C(=O)C(C)=C(OC)C5=O)C(=O)C(C)=C(OC(=O)CC)C2=O | F |
| C/C=C(/C)C(=O)OC[C@H]1c2c(c(OC(=O)CNC(=O)OC(C)(C)C)c(C)c3c2OCO3)C[C@H]2[C@H]3C4=C(C[C@@H]([C@H](C#N)N12)N3C)C(=O)C(C)=C(OC)C4=O | T |
| C/C=C(/C)C(=O)OC[C@H]1c2c(c(OC(=O)[C@@H](NC(=O)OC(C)(C)C)C(C)C)c(C)c3c2OCO3)C[C@H]2[C@H]3C4=C(C[C@@H]([C@H](C#N)N12)N3C)C(=O)C(C)=C(OC)C4=O | T |
| COc1cccc2c1C(=O)c1c(O)c3c(c(O)c1C2=O)C[C@@](O)(C(=O)CO)C[C@@H]3O[C@H]1C[C@H](N)[C@H](O)[C@H](C)O1 [Doxorubicin, reference compound] | F |
| C/C=C(/C)C(=O)OC[C@H]1C2=C(C[C@H]3[C@H]4C5=C(C[C@@H]([C@H](C#N)N13)N4C)C(=O)C(C)=C(OC)C5=O)C(=O)C(C)=C(OC)C2=O | T |

# ---- query molecule ----
Ask: Is it true that IC50 reported for "C/C=C(/C)C(=O)OC[C@H]1c2c(c(OC(=O)/C=C/c3cccnc3)c(C)c3c2OCO3)C[C@H]2[C@H]3C4=C(C[C@@H]([C@H](C#N)N12)N3C)C(=O)C(C)=C(OC)C4=O" is less than 0.2 µM?
Result: T

---

Tested on: H292 non-small-cell lung cancer cell line
Test: cells
Type: cell-based
Conditions: Homo sapiens, NCI-H292; H292, MTT, 72 h; read-out: IC50 ± S.D. H292
For each record, write down the corresponding pIC50.
Answers are plain numbers, as −log10 of the molar value.

| compound | experimentalTarget | pIC50 |
| --- | --- | --- |
| C/C=C(/C)C(=O)OC[C@H]1c2c(c(OC(=O)c3ccc[nH]3)c(C)c3c2OCO3)C[C@H]2[C@H]3C4=C(C[C@@H]([C@H](C#N)N12)N3C)C(=O)C(C)=C(OC)C4=O [Compound 3o] | H292 non-small-cell lung cancer cell line | 7.25 |
| C/C=C(/C)C(=O)OC[C@H]1c2c(c(OC(=O)c3c[nH]c4ccccc34)c(C)c3c2OCO3)C[C@H]2[C@H]3C4=C(C[C@@H]([C@H](C#N)N12)N3C)C(=O)C(C)=C(OC)C4=O [Compound 3l] | H292 non-small-cell lung cancer cell line | 7.16 |
| C/C=C(/C)C(=O)OC[C@H]1C2=C(C[C@H]3[C@H]4C5=C(C[C@@H]([C@H](C#N)N13)N4C)C(=O)C(C)=C(OC)C5=O)C(=O)C(C)=C(OC(=O)c1cccnc1)C2=O [Compound 4b] | H292 non-small-cell lung cancer cell line | 7.00 |
| CC=C(C)C(=O)OCC1c2c(c(O)c(C)c3c2OCO3)CC2C3C4=C(CC(C(C#N)N12)N3C)C(=O)C(C)=C(OC)C4=O (centres unmarked) [Compound 2, renieramycin T] | H292 non-small-cell lung cancer cell line | 7.14 |

Now consider the entry below.
Ask: Consider the compound C/C=C(/C)C(=O)OC[C@H]1c2c(c(OC(=O)[C@H](C)NC(=O)OC(C)(C)C)c(C)c3c2OCO3)C[C@H]2[C@H]3C4=C(C[C@@H]([C@H](C#N)N12)N3C)C(=O)C(C)=C(OC)C4=O [Compound 3d, 5-O-(N-Boc-L-alanine)-renieramycin T] and give its measured pIC50.
Result: 7.40
